Would you mind telling me the reported IC50 of each entry?
- Assayed target: recombinant human liver glycogen phosphorylase (HLGPa) (Homo sapiens)
- Sequence (P06737 1-847): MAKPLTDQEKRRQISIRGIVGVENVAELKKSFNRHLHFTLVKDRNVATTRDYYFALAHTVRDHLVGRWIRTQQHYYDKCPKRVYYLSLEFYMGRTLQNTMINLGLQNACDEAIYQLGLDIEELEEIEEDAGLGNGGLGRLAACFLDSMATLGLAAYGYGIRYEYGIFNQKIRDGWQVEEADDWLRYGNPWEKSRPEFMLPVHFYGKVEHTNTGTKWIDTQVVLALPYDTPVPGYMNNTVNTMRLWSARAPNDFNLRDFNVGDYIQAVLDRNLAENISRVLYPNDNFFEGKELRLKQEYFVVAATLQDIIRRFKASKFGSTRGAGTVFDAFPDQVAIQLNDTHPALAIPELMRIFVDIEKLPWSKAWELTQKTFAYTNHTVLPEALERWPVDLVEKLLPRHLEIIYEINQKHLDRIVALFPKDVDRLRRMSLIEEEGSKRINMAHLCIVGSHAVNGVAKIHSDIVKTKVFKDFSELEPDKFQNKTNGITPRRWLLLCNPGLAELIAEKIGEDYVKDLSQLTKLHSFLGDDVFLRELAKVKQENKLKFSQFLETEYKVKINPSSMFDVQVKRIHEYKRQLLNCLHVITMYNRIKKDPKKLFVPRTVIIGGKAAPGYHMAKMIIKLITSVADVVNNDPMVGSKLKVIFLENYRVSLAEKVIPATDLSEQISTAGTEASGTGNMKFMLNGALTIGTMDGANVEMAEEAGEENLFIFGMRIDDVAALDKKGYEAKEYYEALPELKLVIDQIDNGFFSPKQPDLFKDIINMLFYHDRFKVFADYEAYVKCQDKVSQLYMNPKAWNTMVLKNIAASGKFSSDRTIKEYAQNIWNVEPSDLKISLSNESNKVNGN
- Test name: Measurement of liver glycogen phosphorylase activity (enzyme inhibitory activity against HLGPa)
- Condition: Sf9 cell lysate expressing recombinant enzyme; reverse reaction (glycogen synthesis from G1-P), phosphate by malachite green, 60 min room temperature

In the examples that follow, each entry is paired with its recorded IC50.
O=C(NNC(=O)c1cc2cc(Cl)ccc2[nH]1)c1cccc(-c2nnn[nH]2)c1: > 100 nM
O=C(NNC(=O)c1cc2cc([N+](=O)[O-])ccc2[nH]1)c1ccccc1: > 100 nM

Switching to the query record.
Input: Supply recorded IC50 for "O=C(NNC(=O)c1cc2cc(Cl)ccc2[nH]1)c1ccc(-c2nnn[nH]2)cc1" here.
Output: > 100 nM
